# Test system: K562 CRISPRi cells
# testProtocol: Constant region variant library pooled growth screen, K562
# Format: cell-based, human
# conditionSet: sgRNA constant region variants; activity relative to the original, un-modified constant region cr995
measuredAttribute: Mean relative activity
The answer should be written as a number, with no unit following it.

- molecule: "cr329 (nucleic acid, listed as DNA, chemistry not fully specified) guide: GTTTAAGAGCTAAGCTGGAAACAGCATAGCAACTTTAAATAAAGCTAGTCTGTTATCAACTTGAAAAAGTGGCACCGAGTCGGTGCT"
  val: "−0.007607"

Okay, now this molecule:
Need Mean relative activity, item cr240 (nucleic acid, listed as DNA, chemistry not fully specified) guide: GTTTAAGAGCTAAGCTGGAAACAGCATAGCAAGTTTAAATAAGGCTAGTCCGTTAACAACTTGAAAAAGTGGCACCGAGTCGGTGCT 1.046
